# Tested on: 349418-098-R-PDC complex spheroid viability
# Assay Explanation: Anticancer human tumor 349418-098-R-PDC patient-derived lung adenocarcinoma cell line growth inhibition
# Measurement Context: second compound 10 µM; first compound 0.03 µM; active compounds read low
# From the text: Multicellular complex tumor spheroid response to LSD1 Inhibitor Iadademstat in combination with a variety of drugs and investigational agents in selected tumor cell lines The current study was undertaken to assess response to LSD1 inhibitors in combination with standard-of-care drugs and investigational agents in solid tumor complex spheroid models as well as in the K-562 leukemia. […] Compounds. […] If the clinical Cmax for an agent had not been determined, the highest concentration tested was 10 microM. […]
For each entry below, report its viability, T/C value.
Please state the figure in %; there is no need to write the unit.

Exercise: Notebook entry, 349418-098-R-PDC complex spheroid viability assay: viability, T/C of CCN(c1cc(-c2ccc(CN3CCOCC3)cc2)cc(C(=O)NCc2c(C)cc(C)[nH]c2=O)c1C)C1CCOCC1 + NC1CCC(NC2CC2c2ccccc2)CC1 = ?
Key: 91.2

Exercise: Notebook entry, 349418-098-R-PDC complex spheroid viability assay: viability, T/C of Nc1ccn(C2OC(CO)C(O)C2(F)F)c(=O)n1 (centres undefined) + NC1CCC(NC2CC2c2ccccc2)CC1 = ?
Key: 4.8

Exercise: Notebook entry, 349418-098-R-PDC complex spheroid viability assay: viability, T/C of COc1cc(C2c3cc4c(cc3C(OC3OC5COC(C)OC5C(O)C3O)C3COC(=O)C23)OCO4)cc(OC)c1O (centres undefined) + NC1CC1c1ccc(-c2cccc(O)c2)cc1 = ?
Key: 55.4

Exercise: Notebook entry, 349418-098-R-PDC complex spheroid viability assay: viability, T/C of O=C(C=Cc1cccc(S(=O)(=O)Nc2ccccc2)c1)NO + NC1CCC(NC2CC2c2ccccc2)CC1 = ?
Key: 87.3

* * *

# Tested on: 349418-098-R-PDC complex spheroid viability
# Assay Explanation: Anticancer human tumor 349418-098-R-PDC cell line growth inhibition;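 further: spheroids exposed to agents for seven days before readout; 100% = DMSO vehicle control wells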
# Measurement Context: second compound 1 µM; first compound 3.16 µM; active compounds read low
For each entry below, report its viability, T/C value.
Please state the figure in %; there is no need to write the unit.

Exercise: Tell me the measured viability, T/C of O=C(c1cc(Cc2n[nH]c(=O)c3ccccc23)ccc1F)N1CCN(C(=O)C2CC2)CC1 + NC1CCC(NC2CC2c2ccccc2)CC1 , please.
Key: 62.2

Exercise: Tell me the measured viability, T/C of O=C(c1cc(Cc2n[nH]c(=O)c3ccccc23)ccc1F)N1CCN(C(=O)C2CC2)CC1 + NC1CC1c1ccc(-c2cccc(O)c2)cc1 , please.
Key: 69.1

Exercise: Tell me the measured viability, T/C of CC1(C)CCC(CN2CCN(c3ccc(C(=O)NS(=O)(=O)c4ccc(NCC5CCOCC5)c([N+](=O)[O-])c4)c(Oc4cnc5[nH]ccc5c4)c3)CC2)=C(c2ccc(Cl)cc2)C1 + NC1CC1c1ccc(-c2cccc(O)c2)cc1 , please.
Key: 22.5

Exercise: Tell me the measured viability, T/C of CC1COCCN1c1cc(C2(S(C)(=N)=O)CC2)nc(-c2ccnc3[nH]ccc23)n1 (stereo not drawn) + NC1CC1c1ccc(-c2cccc(O)c2)cc1 , please.
Key: 13.9

Exercise: Tell me the measured viability, T/C of CC(C)c1c(-c2ccccc2)nc2c(C#N)c[nH]n2c1=O + NC1CC1c1ccc(-c2cccc(O)c2)cc1 , please.
Key: 95.7

Exercise: Tell me the measured viability, T/C of COc1ccc([C@@H](O)c2cc(-c3ncnc4cc(N5CCOCC5)ccc34)c(F)cc2Cl)nn1 + NC1CC1c1ccc(-c2cccc(O)c2)cc1 , please.
Key: 7.37

Exercise: Tell me the measured viability, T/C of COc1ccc([C@@H](O)c2cc(-c3ncnc4cc(N5CCOCC5)ccc34)c(F)cc2Cl)nn1 + NC1CCC(NC2CC2c2ccccc2)CC1 , please.
Key: 10.5

Exercise: Tell me the measured viability, T/C of CC1COCCN1c1cc(C2(S(C)(=N)=O)CC2)nc(-c2ccnc3[nH]ccc23)n1 (stereo not drawn) + NC1CCC(NC2CC2c2ccccc2)CC1 , please.
Key: 10.2
